assay: Permeability across apical to basolateral membrane in human Caco-2 cells; format: ADME, cell-based; settings: read-out: permeability
measured.parameter: Papp A→B (×10⁻⁶ cm/s)

INSERT INTO results (smiles_notation, measured_parameter, test_result) VALUES
  ('CN1CCN(C(C)(C)/C=C(\C#N)C(=O)N2CCC[C@@H](n3nc(-c4ccc(Oc5ccccc5)cc4F)c4c(N)ncnc43)C2)CC1=O', 'Papp A→B', 0.4),
  ('CC(=O)N1CCN(C(C)(C)/C=C(\C#N)C(=O)N2CCC[C@@H](n3nc(-c4ccc(Oc5ccccc5)cc4F)c4c(N)ncnc43)C2)CC1', 'Papp A→B', 0.6),
  ('COC(=O)N1CCN(C(C)(C)/C=C(\C#N)C(=O)N2CCC[C@@H](n3nc(-c4ccc(Oc5ccccc5)cc4F)c4c(N)ncnc43)C2)CC1', 'Papp A→B', 3.2),
  ('CC(C)(/C=C(\C#N)C(=O)N1CCC[C@@H](n2nc(-c3ccc(Oc4ccccc4)cc3F)c3c(N)ncnc32)C1)N1CCNC(=O)C1', 'Papp A→B', 1);

---

target: Tyrosine-protein kinase ITK/TSK (Homo sapiens)
Sequence (Q08881 whole entry): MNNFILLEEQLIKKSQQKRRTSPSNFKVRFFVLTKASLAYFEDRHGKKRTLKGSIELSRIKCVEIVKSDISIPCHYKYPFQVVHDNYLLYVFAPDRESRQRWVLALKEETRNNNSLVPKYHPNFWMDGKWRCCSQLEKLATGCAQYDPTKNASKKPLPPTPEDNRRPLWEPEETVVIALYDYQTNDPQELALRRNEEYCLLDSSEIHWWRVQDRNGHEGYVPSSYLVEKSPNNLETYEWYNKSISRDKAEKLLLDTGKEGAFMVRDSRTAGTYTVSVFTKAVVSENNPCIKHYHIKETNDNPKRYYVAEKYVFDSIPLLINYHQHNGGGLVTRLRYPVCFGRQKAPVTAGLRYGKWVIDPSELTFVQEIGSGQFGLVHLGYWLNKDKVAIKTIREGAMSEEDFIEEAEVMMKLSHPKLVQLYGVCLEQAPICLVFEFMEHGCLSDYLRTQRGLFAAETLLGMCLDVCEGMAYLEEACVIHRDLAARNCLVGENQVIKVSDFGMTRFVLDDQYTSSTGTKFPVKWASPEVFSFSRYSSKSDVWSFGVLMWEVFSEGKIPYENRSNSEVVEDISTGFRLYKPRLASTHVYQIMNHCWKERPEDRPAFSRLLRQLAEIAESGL
measured.parameter: IC50 (nM)

INSERT INTO assay_data (molecule, output_unit, test_result) VALUES
  ('CC(C)(C)/C=C(\C#N)C(=O)N1CCC[C@@H](n2nc(-c3ccc(Oc4ccccc4)cc3F)c3c(N)ncnc32)C1 [ATUZABRUTINIB]', 'nM', 303);

---

test: Inhibition of IL-2 production in TCR-stimulated T-cells in human whole blood; assay type: functional, tissue-based; details: T-cell
measured.parameter: IC50

INSERT INTO results (smiles_notation, test_result) VALUES
  ('CC(C)(C)/C=C(\C#N)C(=O)N1CCC[C@@H](n2nc(-c3ccc(Oc4ccccc4)cc3F)c3c(N)ncnc32)C1', '> 5 µM');

---

Catalogue of pIC50 readings, one per entry.
target: Tyrosine-protein kinase TXK (Homo sapiens); assay: Inhibition of RLK (unknown origin) using peptide substrate in presence of ATP by caliper electrophoresis method
Sequence (P42681 whole entry): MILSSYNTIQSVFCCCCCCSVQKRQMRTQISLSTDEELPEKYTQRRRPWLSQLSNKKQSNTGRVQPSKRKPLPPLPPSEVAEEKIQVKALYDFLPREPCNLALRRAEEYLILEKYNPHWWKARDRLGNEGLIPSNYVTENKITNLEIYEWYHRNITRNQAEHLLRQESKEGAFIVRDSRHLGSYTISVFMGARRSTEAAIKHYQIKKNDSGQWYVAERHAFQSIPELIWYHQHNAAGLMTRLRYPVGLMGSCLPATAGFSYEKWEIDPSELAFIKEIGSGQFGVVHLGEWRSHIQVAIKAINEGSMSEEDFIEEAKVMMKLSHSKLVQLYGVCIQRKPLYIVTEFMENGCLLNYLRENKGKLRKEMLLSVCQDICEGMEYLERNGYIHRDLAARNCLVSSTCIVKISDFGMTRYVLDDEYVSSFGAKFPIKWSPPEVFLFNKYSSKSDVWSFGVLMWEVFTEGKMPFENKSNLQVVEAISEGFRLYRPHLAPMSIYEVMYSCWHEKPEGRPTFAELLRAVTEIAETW
pIC50: −log10 of the molar value.
measured.parameter: pIC50

INSERT INTO assay_data (smiles_notation, test_result) VALUES
  ('CN1CCN(C(C)(C)/C=C(\C#N)C(=O)N2CCC[C@@H](n3nc(-c4ccc(Oc5ccccc5)cc4F)c4c(N)ncnc43)C2)CC1', 8.92),
  ('CC(C)(/C=C(/C#N)C(=O)N1CCC[C@@H]1Cn1nc(-c2ccc(Oc3ccccc3)cc2F)c2c(N)ncnc21)N1CCOCC1', 7.35),
  ('CC(C)(C)/C=C(\C#N)C(=O)N1CCC[C@@H](n2nc(-c3ccc(Oc4ccccc4)cc3F)c3c(N)ncnc32)C1', 8.47);

---

Catalogue of microsomal CLint readings, one per entry.
assay: Clearance in human liver S9 fraction assessed as measuring per mg protein by LCMS/MS analysis; type: ADME, subcellular; conditions: read-out: CLH
measured.parameter: microsomal CLint (µL/min/mg)

INSERT INTO measurements (smiles_notation, measured_parameter, test_result) VALUES
  ('CC(C)(/C=C(/C#N)C(=O)N1CCC[C@@H]1Cn1nc(-c2ccc(Oc3ccccc3)cc2F)c2c(N)ncnc21)N1CCOCC1', 'microsomal CLint', 152),
  ('CN1CCN(C(C)(C)/C=C(\C#N)C(=O)N2CCC[C@@H](n3nc(-c4ccc(Oc5ccccc5)cc4F)c4c(N)ncnc43)C2)CC1', 'microsomal CLint', 30),
  ('COCCN1CCN(C(C)(C)/C=C(\C#N)C(=O)N2CCC[C@@H](n3nc(-c4ccc(Oc5ccccc5)cc4F)c4c(N)ncnc43)C2)CC1', 'microsomal CLint', 49),
  ('CC(C)(/C=C(\C#N)C(=O)N1CCC[C@@H](n2nc(-c3ccc(Oc4ccccc4)cc3F)c3c(N)ncnc32)C1)N1CCN(C2COC2)CC1', 'microsomal CLint', 23),
  ('COC(=O)N1CCN(C(C)(C)/C=C(\C#N)C(=O)N2CCC[C@@H](n3nc(-c4ccc(Oc5ccccc5)cc4F)c4c(N)ncnc43)C2)CC1', 'microsomal CLint', 68),
  ('CN1CCN(C(C)(C)/C=C(\C#N)C(=O)N2CCC[C@@H](n3nc(-c4ccc(Oc5ccccc5)cc4F)c4c(N)ncnc43)C2)CC1=O', 'microsomal CLint', 80),
  ('C[C@@H]1CN(C(C)(C)/C=C(\C#N)C(=O)N2CCC[C@@H](n3nc(-c4ccc(Oc5ccccc5)cc4F)c4c(N)ncnc43)C2)C[C@H](C)N1C', 'microsomal CLint', 14),
  ('CC(C)(C)/C=C(\C#N)C(=O)N1CCC[C@@H](n2nc(-c3ccc(Oc4ccccc4)cc3F)c3c(N)ncnc32)C1', 'microsomal CLint', 77);
